Recorded values, source PubChem BioAssay (Tox21).

assayed target: Nuclear receptor subfamily 1 group I member 2 (Homo sapiens)
test method notes: CYP3A4 induction through human pregnane X receptor (PXR) by small molecules, qHTS assay (AID 1346984); note: nearly all actives have a fitted effect of over 40% in size
condition label: DPX-2 HepG2 PXR, CYP3A4-luciferin luminescence, 24 h; series mostly up to 46.1 µM
Inconclusive results are not listed. Activity calls are given as the source filed them. Calls come from the whole dose curve; as a rule, active = well fitted activation curve with a large enough effect in the repeat runs; inconclusive = weak or mixed curves; inactive = no such curve, though single readings can be large or run the other way.
Output constraint: value belongs to True (active), False (inactive)

// below: answered molecules
molecule	assayed target	qualitative label
CCN(CC)CCC(=O)N1c2ccccc2Sc2ccc(C(F)(F)F)cc21	Nuclear receptor subfamily 1 group I member 2 (Homo sapiens)	True
N#CC(c1ccc(Cl)cc1)c1c(Cl)cc(-n2ncc(=O)[nH]c2=O)cc1Cl (stereo unspecified)	Nuclear receptor subfamily 1 group I member 2 (Homo sapiens)	False
O=C1C(=O)c2ncccc2-c2cccnc21	Nuclear receptor subfamily 1 group I member 2 (Homo sapiens)	False
COc1ccc(CC2c3cc(OC)c(OC)cc3CC[N+]2(C)CCC(=O)OCCCCCOC(=O)CC[N+]2(C)CCc3cc(OC)c(OC)cc3C2Cc2ccc(OC)c(OC)c2)cc1OC (stereo unspecified)	Nuclear receptor subfamily 1 group I member 2 (Homo sapiens)	False
CCCC1C(=O)N2C(N(C)C)=Nc3ccc(C)cc3N2C1=O (stereo unspecified)	Nuclear receptor subfamily 1 group I member 2 (Homo sapiens)	False
CC(C)N1CCN(c2ccc(OC[C@H]3CO[C@](Cn4cncn4)(c4ccc(Cl)cc4Cl)O3)cc2)CC1	Nuclear receptor subfamily 1 group I member 2 (Homo sapiens)	False
CC(=O)OCC(=O)[C@@]12OC3(CCCC3)O[C@@H]1C[C@H]1[C@@H]3CCC4=CC(=O)C=C[C@]4(C)[C@@]3(F)[C@@H](O)C[C@@]12C	Nuclear receptor subfamily 1 group I member 2 (Homo sapiens)	False
O=C1c2ccccc2C(=O)C1c1ccc(Cl)cc1	Nuclear receptor subfamily 1 group I member 2 (Homo sapiens)	False

Query :: Returns: the outcome recorded for CNC(=O)[C@H](Cc1c[nH]c2ccccc12)NC(=O)[C@@H](CC(=O)NO)CC(C)C in this assay.
Result :: False

Query :: Would you mind telling me which call this test gave NC(=O)c1ccc[n+]([C@@H]2O[C@H](COP(=O)([O-])OP(=O)(O)OC[C@H]3O[C@@H](n4cnc5c(N)ncnc54)[C@H](O)[C@@H]3O)[C@@H](O)[C@H]2O)c1 ?
Result :: False

Query :: Record request — test call for CC(C)=CCC/C(C)=C/C=C/C(C)=C/C=C/C(C)=C/C=C/C=C(C)/C=C/C=C(C)/C=C/C=C(\C)CCC=C(C)C
Result :: False

Query :: What call does the record list for C=CCN1CCCC1CNC(=O)c1cc(S(N)(=O)=O)cc(OC)c1OC (stereo unspecified) ?
Result :: True

Query :: Which outcome was assigned to Nc1ncnc2c1ncn2CCOCP(=O)(O)O in this test?
Result :: False

Query :: So what was the verdict on CC(C(=O)O)c1ccc(N2Cc3ccccc3C2=O)cc1 (stereo unspecified) in this test?
Result :: False

Query :: Could you check what this test reported for CNc1cc(OC)c(C(=O)N[C@H]2CCN(Cc3ccccc3)[C@H]2C)cc1Cl ?
Result :: False

Query :: Recorded call for COc1ccc(C[C@H](N)C(=O)N[C@H]2[C@@H](O)[C@H](n3cnc4c(N(C)C)ncnc43)O[C@@H]2CO)cc1 ?
Result :: False

Query :: Lab log entry: CCCCC(=O)O[C@H]1CC[C@H]2[C@@H]3CCc4cc(O)ccc4[C@H]3CC[C@]12C — outcome as called in the assay?
Result :: False

Query :: Outcome? C#C[C@]1(O)CC[C@H]2[C@@H]3CCC4=CCCC[C@@H]4[C@H]3C(=C)C[C@@]21CC
Result :: False

Query :: Please state the recorded outcome for this molecule: COc1ccc2c(c1)OC(C)(C)C(c1ccccc1)C2c1ccc(OCCN2CCCC2)cc1 (stereo unspecified)
Result :: False

Query :: Which outcome did this test record for the molecule NCCCC[C@H](N)C(=O)O ?
Result :: False

Query :: # fetch the recorded call for C[C@@H]1C[C@H]2[C@@H]3CCC4=CC(=O)C=C[C@]4(C)[C@@]3(F)[C@@H](O)C[C@]2(C)[C@@]1(O)C(=O)COC(=O)c1cccc(S(=O)(=O)O)c1 here
Result :: False

Query :: I would be grateful if you could indicate the recorded call for CC(O)[C@H]1CC[C@H]2[C@@H]3CC[C@@H]4C[C@@H](O)CC[C@]4(C)[C@H]3CC[C@]12C (stereo partly specified) .
Result :: False

Query :: Which outcome did this test record for the molecule NC(=S)N=Nc1ccc(NN=C(N)N)cc1 ?
Result :: False

Query :: Look up the recorded call for COc1ccc(/C=C/C(=O)OCCC(C)C)cc1 in this test.
Result :: False

Query :: Tell me the assay call for CC(NNC(=O)c1ccccc1)c1ccccc1 (stereo unspecified) please.
Result :: False

Query :: State the result this test recorded for OC[C@H]1O[C@@H](O[C@H]2[C@H](O)[C@@H](O)[C@H](O)O[C@@H]2CO)[C@H](O)[C@@H](O)[C@@H]1O .
Result :: False

Query :: // return assay outcome for NC(=O)OCC(O)COc1ccc(Cl)cc1 (stereo unspecified)
Result :: False

Query :: Tell me the recorded outcome of this test for O=C1NCCN1c1ncc([N+](=O)[O-])s1 .
Result :: False

Query :: # fetch the recorded call for CCNC(=O)[C@@H]1CCCN1C(=O)[C@H](CCCN=C(N)N)NC(=O)[C@H](CC(C)C)NC(=O)[C@@H](Cc1c[nH]c2ccccc12)NC(=O)[C@H](Cc1ccc(O)cc1)NC(=O)[C@H](CO)NC(=O)[C@H](Cc1c[nH]c2ccccc12)NC(=O)[C@H](Cc1cnc[nH]1)NC(=O)[C@@H]1CCC(=O)N1 here
Result :: False

Query :: // param item: CC(O)[C@@H]1NC(=O)[C@H](Cc2ccccc2)NC(=O)[C@H](C(C)O)NC(=O)[C@H](CCCCN)NC(=O)[C@H](Cc2c[nH]c3ccccc23)NC(=O)[C@H](Cc2ccccc2)NC(=O)[C@H](Cc2ccccc2)NC(=O)[C@H](CC(N)=O)NC(=O)[C@H](CCCCN)NC(=O)[C@@H](NC(=O)CNC(=O)[C@H](C)N)CSSC[C@@H](C(=O)O)NC(=O)[C@H](CO)NC1=O (stereo partly specified) ; yields the recorded call
Result :: False

Query :: Which result was noted for this molecule in the test: CC[C@H](C)[C@H]1O[C@]2(CC[C@@H]1C)C[C@@H]1C[C@@H](C/C=C(\C)[C@@H](O[C@H]3C[C@H](OC)[C@@H](O[C@H]4C[C@H](OC)[C@@H](O)[C@H](C)O4)[C@H](C)O3)[C@@H](C)/C=C/C=C3\CO[C@@H]4[C@H](O)C(C)=C[C@@H](C(=O)O1)[C@]34O)O2
Result :: False

----------
assayed target: Nuclear receptor subfamily 1 group I member 2 (Homo sapiens)
test method notes: CYP3A4 induction through human pregnane X receptor (PXR) by small molecules, qHTS assay (AID 1346984); note: nearly all actives have a fitted effect of over 40% in size
condition label: DPX-2 HepG2 PXR, CYP3A4-luciferin luminescence, 24 h; series mostly up to 46.1 µM
Records with an inconclusive call do not appear. Calls of active or inactive are those of the source. The call rests on the fitted dose curve; in most records, active means well fitted activation curve with a large enough effect in the repeat runs; inconclusive means weak or mixed curves; inactive means no such curve, though single readings can be large or run the other way.
// classify into active, inactive

molecule	qualitative label
CCCCC[C@H](O)/C=C/[C@H]1[C@H](O)CC(=O)[C@@H]1CCCCCCC(=O)O	inactive

Query :: Identify the outcome logged in this assay for the molecule shown: O=c1oc2cc(O)ccc2s1
Result :: inactive

Query :: Returns: the outcome recorded for COc1ccccc1N1CCN(CCCC(=O)c2ccc(F)cc2)CC1 in this assay.
Result :: active

Query :: // param item: O=C(O)c1ccc(NC(=O)[C@H](Cc2ccc(O)cc2)NC(=O)c2ccccc2)cc1 ; yields the recorded call
Result :: inactive

Query :: Record lookup: outcome of this test for O=[n+]1ccn([O-])c2ccccc21 ?
Result :: inactive

----------
test method notes: qHTS assay for small molecules that induce genotoxicity in human embryonic kidney cells expressing luciferase-tagged ATAD5 - cell viability (AID 651634); note: nearly all actives have a fitted effect of over 25% in size
condition label: HEK293T ATAD5-luc cells viability, CellTiter-Fluor, 15.5 h; series mostly up to 83.3 µM
Source text: National Center for Advancing Translational Sciences [NCATS] NIH Chemical Genomics Center [NCGC] U.S. Environmental Protection Agency [EPA] National Institutes of Environmental Health Sciences [NIEHS] National Toxicology Program [NTP] U.S. Food and Drug Administration [FDA] Enhanced Level of Genome Instability Gene 1 (ELG1; human ATAD5) protein levels increase in response to various types of DNA damage. […]
Records with an inconclusive call do not appear. The source made the active and inactive calls. Calls come from the whole dose curve.
In this exercise, the only acceptable responses are active, inactive

Below, 5 compounds whose answers are already recorded.
compound	qualitative label
CC(C)C[C@H](NC(=O)[C@@H](Cc1c[nH]c2ccccc12)NC(=O)[C@H](Cc1ccc(O)cc1)NC(=O)[C@H](CO)NC(=O)[C@H](Cc1c[nH]c2ccccc12)NC(=O)[C@H](Cc1cnc[nH]1)NC(=O)[C@@H]1CCC(=O)N1)C(=O)N[C@@H](CCCN=C(N)N)C(=O)N1CCC[C@@H]1C(=O)NCC(N)=O	inactive
CO[C@@H]1[C@@H](O[C@@H]2O[C@H](C)[C@@H](O[C@H]3C[C@@](C)(O)[C@@H](OC(=O)CC(C)C)[C@H](C)O3)[C@H](N(C)C)[C@H]2O)[C@@H](CC=O)C[C@@H](C)[C@@H](O)/C=C/C=C/C[C@@H](C)OC(=O)C[C@H]1O	inactive
CCC[C@@]1(CCc2ccccc2)CC(O)=C([C@H](CC)c2cccc(NS(=O)(=O)c3ccc(C(F)(F)F)cn3)c2)C(=O)O1	inactive
CS(=O)(=O)c1ccc(C2=C(c3ccccc3)C(=O)OC2)cc1	inactive
O=C1O[C@H]2[C@H](O)[C@@H]1OC(O)[C@H]2O (stereo partly specified)	inactive

Query :: Please let me know the test result on file for CC1(C)S[C@@H]2[C@H](NC(=O)[C@H](NC(=O)N3CCN(S(C)(=O)=O)C3=O)c3ccccc3)C(=O)N2[C@H]1C(=O)O .
Result :: inactive

Query :: Lab log entry: CC1(C)S[C@@H]2[C@H](NC(=O)Cc3ccccc3)C(=O)N2[C@H]1C(=O)O — outcome as called in the assay?
Result :: inactive

Query :: I'd appreciate the recorded outcome for c1cnc2cc3c(cc2n1)[C@@H]1CNC[C@H]3C1 from this test.
Result :: inactive
